Please provide measured GI50 for the entries that follow.
- System: UACC-62
- EXPERIMENTAL PROTOCOL: NCI tumour cell line growth inhibition, 48 h
Active and inactive are the calls of the source. No stated cut-off is given here; in the data, active = GI50 up to about 1.1 µM and inactive = higher.

Task item: Give GI50 for the following compound: NC(CCCCNC(=O)CNC(=O)OCc1ccccc1)C(=O)NC(CCCCNC(=O)CNC(=O)OCc1ccccc1)C(=O)NC(CCCCNC(=O)CNC(=O)OCc1ccccc1)C(=O)NC(CCCCNC(=O)CNC(=O)OCc1ccccc1)C(=O)NC(CCCCNC(=O)CNC(=O)OCc1ccccc1)C(=O)NC(CCCCNC(=O)CNC(=O)OCc1ccccc1)C(=O)O (stereo not drawn)
Reply: > 75 µM (inactive)

Task item: Give GI50 for the following compound: CC1(C)CC2C=C(C=O)C3(C=O)CC3(C)C2C1 (stereo not drawn)
Reply: 5.46 µM (inactive)

Task item: Give GI50 for the following compound: COc1cc(/C=C2\C(=O)N(c3ccc(NC(C)=O)cc3)C(c3ccccc3)S2(=O)=O)cc(OC)c1OC (stereo not drawn)
Reply: > 100 µM (inactive)
